subjectOfTest: Recombinant human IL-1β (BioLegend 579404) (human, UniProt P01584 117-269)
methodNotes: cell-based or functional assay
Starred links: 1 amine or outer side, 2 acyl side, 3 side chain; linkers in the order of their positions; H or OH if unused. Non-standard residues stand in square brackets, D forms with d. AEF4AcPip4c = (S)-3-(4-(2-(1-acetylpiperidine-4-carboxamido)ethoxy)phenyl)-2-aminopropanoic acid, CC(=O)N1CCC(C(=O)NCCOc2ccc(C[C@H](N[*:1])C(=O)[*:2])cc2)CC1; AEF4PyrCO = (S)-2-amino-3-(4-(2-(isonicotinamido)ethoxy)phenyl)propanoic acid, O=C(NCCOc1ccc(C[C@H](N[*:1])C(=O)[*:2])cc1)c1ccncc1; orbOHorPhe4COOH = 4-[(1R,2S)-2-amino-2-carboxy-1-hydroxy-ethyl]benzoic acid, O=C([C@@H](N[*:1])[C@H](O)c1ccc(C(=O)[*:3])cc1)[*:2]; TyrEtNAc = (2S)-3-[4-(2-acetamidoethoxy)phenyl]-2-amino-propanoic acid, CC(=O)NCCOc1ccc(C[C@H](N[*:1])C(=O)[*:2])cc1; Ala2Oxa = 3-(oxazol-2-yl)alanine, O=C([C@H](Cc1ncco1)N[*:1])[*:2]; dPro(4R-(4-pyridylmethyl)) = O=C(O)[C@H]1C[C@@H](Cc2ccncc2)CN1; Trp(βS-Me,4-F) = C[C@@H](c1c[nH]c2cccc(F)c12)[C@H](N)C(=O)O; Bip(4'-COOH) = N[C@@H](Cc1ccc(-c2ccc(C(=O)O)cc2)cc1)C(=O)O; dPro(4R-Bzl(4-F)) = O=C(O)[C@H]1C[C@@H](Cc2ccc(F)cc2)CN1; Ala(pyrimidin-5-yl) = N[C@@H](Cc1cncnc1)C(=O)O; Phe(4-COOH) = N[C@@H](Cc1ccc(C(=O)O)cc1)C(=O)O; Phe(4-tBu) = CC(C)(C)c1ccc(C[C@H](N)C(=O)O)cc1; Bip = N[C@@H](Cc1ccc(-c2ccccc2)cc1)C(=O)O; Pro(cis-4-F) = O=C(O)[C@@H]1C[C@H](F)CN1; d(αMeF) = C[C@@](N)(Cc1ccccc1)C(=O)O; d(αMeD) = C[C@@](N)(CC(=O)O)C(=O)O; 3Pal = N[C@@H](Cc1cccnc1)C(=O)O; 4Pal = N[C@@H](Cc1ccncc1)C(=O)O; aThr = C[C@H](O)[C@H](N)C(=O)O; Dab = NCC[C@H](N)C(=O)O; Nva = CCC[C@H](N)C(=O)O; Aib = CC(C)(N)C(=O)O
readoutKind: MRC5 IC50 (pM)

>  <binder>
cyclo([Phe(4-tBu)][4Pal][Phe(4-COOH)]G[Pro(cis-4-F)][Trp(βS-Me,4-F)][Aib]EW[Aib][Ala(pyrimidin-5-yl)]Q[Dab]G[dPro(4R-(4-pyridylmethyl))]) (ring closure inferred; not fully specified (N-terminus); printed as cyclic, Phe4tButyl-4Pal-Phe4COOH-G-Proc4F-SbMeW4F-Aib-E-W-Aib-PyrimAla-Q-Dab-G-dProc4CH24Pal) [SEQ ID NO 311]

>  <observed>
17

$$$$
>  <binder>
cyclo([Bip(4'-COOH)][4Pal][Phe(4-COOH)]G[Pro(cis-4-F)][Trp(βS-Me,4-F)][Aib]SW[d(αMeF)]DQ[Dab]G[dPro(4R-(4-pyridylmethyl))]) (ring closure inferred) [SEQ ID NO 259]

>  <observed>
14

$$$$
>  <binder>
cyclo([Bip][4Pal][Phe(4-COOH)]G[Pro(cis-4-F)][Trp(βS-Me,4-F)][Aib]SW[d(αMeD)][aThr]Q[Dab]G[dPro(4R-(4-pyridylmethyl))]) (ring closure inferred; not fully specified (N-terminus); printed as cyclic, Bip-4Pal-Phe4COOH-G-Proc4F-SbMeW4F-Aib-S-W-daMeD-alT-Q-Dab-G-dProc4CH24Pal) [SEQ ID NO 293]

>  <observed>
10

$$$$
>  <binder>
cyclo([Bip(4'-COOH)][4Pal][Phe(4-COOH)]G[Pro(cis-4-F)][Trp(βS-Me,4-F)][Aib]SW[d(αMeF)]EQ[Dab]G[dPro(4R-(4-pyridylmethyl))]) (ring closure inferred) [SEQ ID NO 258]

>  <observed>
20

$$$$
>  <binder>
cyclo([Bip(4'-COOH)][4Pal][Phe(4-COOH)]G[Pro(cis-4-F)][Trp(βS-Me,4-F)][Aib]SW[d(αMeD)][Nva]Q[Dab]G[dPro(4R-(4-pyridylmethyl))]) (ring closure inferred) [SEQ ID NO 253]

>  <observed>
13

$$$$
>  <binder>
cyclo([AEF4AcPip4c][4Pal][Phe(4-COOH)]G[Pro(cis-4-F)][Trp(βS-Me,4-F)][Aib]SW[Aib][Ala(pyrimidin-5-yl)]Q[Dab]G[dPro(4R-(4-pyridylmethyl))]) (ring closure inferred; not fully specified (N-terminus); printed as cyclic, AEF4AcPip4c-4Pal-Phe4COOH-G-Proc4F-SbMeW4F-Aib-S-W-Aib-PyrimAla-Q-Dab-G-dProc4CH24Pal) [SEQ ID NO 302]

>  <observed>
17

$$$$
>  <binder>
cyclo([Bip(4'-COOH)][4Pal][Phe(4-COOH)]G[Pro(cis-4-F)][Trp(βS-Me,4-F)][Aib]SW[d(αMeD)][3Pal]Q[Dab]G[dPro(4R-Bzl(4-F))]) (ring closure inferred) [SEQ ID NO 323]

>  <observed>
12

$$$$
>  <binder>
cyclo([TyrEtNAc][4Pal][Phe(4-COOH)]G[Pro(cis-4-F)][Trp(βS-Me,4-F)][Aib]EW[Aib][Ala2Oxa]Q[Dab]G[dPro(4R-(4-pyridylmethyl))]) (ring closure inferred; not fully specified (N-terminus)) [SEQ ID NO 316]

>  <observed>
20

$$$$
>  <binder>
cyclo([AEF4PyrCO][4Pal][Phe(4-COOH)]G[Pro(cis-4-F)][Trp(βS-Me,4-F)][Aib]SW[Aib][Ala(pyrimidin-5-yl)]Q[Dab]G[dPro(4R-(4-pyridylmethyl))]) (ring closure inferred; not fully specified (N-terminus); printed as cyclic, AEF4PyrCO-4Pal-Phe4COOH-G-Proc4F-SbMeW4F-Aib-S-W-Aib-PyrimAla-Q-Dab-G-dProc4CH24Pal) [SEQ ID NO 307]

>  <observed>
18

$$$$
>  <binder>
cyclo([TyrEtNAc][4Pal][Phe(4-COOH)]G[Pro(cis-4-F)][Trp(βS-Me,4-F)][Aib]EW[Aib]FQ[Dab]G[dPro(4R-(4-pyridylmethyl))]) (ring closure inferred) [SEQ ID NO 336]

>  <observed>
23

$$$$
>  <binder>
cyclo([Bip(4'-COOH)][4Pal][orbOHorPhe4COOH]G[Pro(cis-4-F)][Trp(βS-Me,4-F)][Aib]SW[Aib][Ala(pyrimidin-5-yl)]Q[Dab]G[dPro(4R-Bzl(4-F))]) (ring closure inferred) [SEQ ID NO 275]

>  <observed>
18

$$$$
